Reported melting point is given for each of the following compounds.

CCCCn1c(=O)c(NC(=O)Nc2c(C(C)C)cccc2C(C)C)c(-c2cccc(OC)c2)c2cccnc21    178 to 181 °C

Q. Give melting point for COc1cc(OC)c2c(c1)S(=O)(=O)N(CCl)C2=O
A. 185 to 187 °C

Q. Give melting point for CC1(c2ccc([N+](=O)[O-])cc2)Cc2cc(O)c(Cl)c(Cl)c2C1=O (stereo not given)
A. 268 to 270 °C

Q. Give melting point for CS(=O)(=O)CCN1CCC2(CC1)CC(=O)c1cc(NS(C)(=O)=O)ccc1O2
A. 250 to 251 °C

Q. Give melting point for NC(=O)c1cc(-c2ccncc2)c[nH]c1=O
A. > 300 °C

Q. Give melting point for N#Cc1ccccc1-c1ccc(CCl)cc1
A. 125 to 126 °C

Q. Give melting point for COc1ccc(CNc2nc(Cl)ccc2C(=O)O)cc1Cl
A. 184 to 186 °C

Q. Give melting point for O=C1NCCNN1c1cc(C(F)(F)F)cc(Cl)n1
A. 191 to 192 °C

Q. Give melting point for CCCCCN(C(=O)Nc1ccc(C(=O)O)cc1F)c1ccc2c(c1)C(C)(C)CCC2(C)C
A. 151 to 157 °C

Q. Give melting point for CSc1ccc(C2=CC(=O)C3(CCOCC3)O2)cc1
A. 135 to 138 °C
